# targetOrTestSystem: Thrombin, from Human Plasma, high activity (human, UniProt P00734 328-622)
# protocolDetails: enzyme inhibition, pNA substrate
Bridges are numbered along the chain shown (N, C = ends). [ ]: non-standard residue; d: D form. Pro(4NHCOPhe) = not defined here; Cha = N[C@@H](CC1CCCCC1)C(=O)O; Nle = CCCC[C@H](N)C(=O)O
Form field: % inhibition at 100 µM (one value per entry).
Kindly answer with a numeric value in %, unit omitted.

Solved cases below.
# binder, % inhibition at 100 µM [%]
records = [
    ("XQTASIPPQTY (HELM PEPTIDE1{[Nle].Q.T.A.S.I.P.P.Q.T.Y.[dP].P}$PEPTIDE1,PEPTIDE1,1:R1-13:R2$$$V2.0; SMILES CCCC[C@@H]1NC(=O)[C@@H]2CCCN2C(=O)[C@H]2CCCN2C(=O)[C@H](Cc2ccc(O)cc2)NC(=O)[C@H]([C@@H](C)O)NC(=O)[C@H](CCC(N)=O)NC(=O)[C@@H]2CCCN2C(=O)[C@@H]2CCCN2C(=O)[C@H]([C@@H](C)CC)NC(=O)[C@H](CO)NC(=O)[C@H](C)NC(=O)[C@H]([C@@H](C)O)NC(=O)[C@H](CCC(N)=O)NC1=O, also called Ex. 109) [Example 109]", 0),
    ("XCTASIPPQCF (HELM PEPTIDE1{[Nle].C.T.A.S.I.P.P.Q.C.F.[dP].P}$PEPTIDE1,PEPTIDE1,2:R3-10:R3|PEPTIDE1,PEPTIDE1,1:R1-13:R2$$$V2.0; SMILES CCCC[C@@H]1NC(=O)[C@@H]2CCCN2C(=O)[C@H]2CCCN2C(=O)[C@H](Cc2ccccc2)NC(=O)[C@@H]2CSSC[C@H](NC1=O)C(=O)N[C@@H]([C@@H](C)O)C(=O)N[C@@H](C)C(=O)N[C@@H](CO)C(=O)N[C@@H]([C@@H](C)CC)C(=O)N1CCC[C@H]1C(=O)N1CCC[C@H]1C(=O)N[C@@H](CCC(N)=O)C(=O)N2, also called Ex. 137) [Example 137]", 0),
]

Reported % inhibition at 100 µM of cyclo([Nle]CTAS[Cha]P[Pro(4NHCOPhe)]QCQ[dQ]Q) (disulfide 2-10; reading uncertain, also called Ex. 176) [Example 176] : 15
